Cited source: paper PMC3465710

molecular target: GLUT1 (Homo sapiens, UniProt P11166); type: binding; settings: read-out: Ki (affinity of unoccupied GLUT1 for ligand); 50 nM [3H]-CB, 4°C, eqn 6, iterative free [I]
Would you kindly list pKi for each of these compounds?
As a rule, pKi stands for the negative log10 of the concentration, concentration in M.

Input line: Return value of pKi for input C=C[C@@]1(C)CC(=O)[C@]2(O)[C@@]3(C)[C@@H](O)CCC(C)(C)[C@@H]3[C@H](O)[C@H](O)[C@@]2(C)O1 , no commentary.
Output line: 8.70

Input line: Quick one: give measured pKi for CC(=O)O[C@@H]1/C=C\[C@@](C)(O)C(=O)[C@@H](C)C/C=C\[C@H]2[C@H](O)C(C)=C(C)[C@H]3C(Cc4ccccc4)NC(=O)[C@]132 (some centres unmarked)
Output line: 5.80

Input line: Give pKi for CC[C@@]1(C)CC(=O)[C@@]2(O)[C@]3(C)[C@H](O)CCC(C)(C)[C@H]3[C@@H](O)[C@@H](OC(C)=O)[C@]2(C)O1 [14.15DiHFSK, 14,15-dihydro-forskolin]
Output line: 7.54

Input line: Supply recorded pKi for C=C1[C@@H](C)[C@H]2[C@H](Cc3ccccc3)NC(=O)[C@]23OC(=O)/C=C/C(=O)CCC[C@@H](C)C/C=C/[C@H]3[C@@H]1O here.
Output line: 6.09

Input line: For C=C1[C@@H](C)[C@H]2[C@H](Cc3ccccc3)NC(=O)[C@]23[C@H](O)/C=C/[C@](C)(O)C[C@@H](C)C/C=C/[C@H]3[C@@H]1O , write its pKi.
Output line: 7.92

---

molecular target: GLUT1 (Homo sapiens, UniProt P11166); assay type: binding; conditions: calculated as RT ln(1/KI)
Ranges used to classify ΔG°: lo: < -10 kcal/mol; mid: ≥ -10 kcal/mol and < -8 kcal/mol; hi: ≥ -8 kcal/mol

Input line: Please indicate the class for C=C[C@@]1(C)CC(=O)[C@]2(O)[C@@]3(C)[C@@H](OC(C)=O)CCC(C)(C)[C@@H]3[C@H](O)[C@H](OC(C)=O)[C@@]2(C)O1 based on its ΔG°.
Output line: lo

Input line: Hello team, could you let me know which band the following molecule falls into: C=C1[C@@H](C)[C@H]2[C@H](Cc3ccccc3)NC(=O)[C@]23OC(=O)/C=C/C(=O)CCC[C@@H](C)C/C=C/[C@H]3[C@@H]1O
Output line: hi

Input line: Bin this entry: C[C@H]1C/C=C/[C@H]2[C@@H]3O[C@]3(C)[C@@H](C)[C@H]3[C@H](Cc4ccccc4)NC(=O)[C@]32OC(=O)O/C=C/[C@@](C)(O)C1=O
Output line: mid

Input line: Kindly identify the class of C=C[C@@]1(C)CC(=O)[C@]2(O)[C@@]3(C)[C@@H](O)CCC(C)(C)[C@@H]3[C@H](O)[C@H](OC(C)=O)[C@@]2(C)O1 .
Output line: hi

Input line: Where would C=C1[C@@H](C)[C@H]2[C@H](Cc3ccccc3)NC(=O)[C@]23OC(=O)/C=C/[C@H](O)CCC[C@@H](C)C/C=C/[C@H]3[C@@H]1O land among the classes by reported ΔG°?
Output line: mid

Input line: Category of C=C1[C@@H](C)[C@H]2[C@H](Cc3ccccc3)NC(=O)[C@]23[C@H](OC(C)=O)/C=C/[C@@](C)(O)C(=O)[C@@H](C)C/C=C/[C@H]3[C@@H]1O , please.
Output line: hi

Input line: Assign a category based on measured ΔG° for C=C1[C@@H](C)[C@H]2[C@H](Cc3ccccc3)NC(=O)[C@]23[C@H](OC(C)=O)/C=C/[C@](C)(O)C[C@@H](C)C/C=C/[C@H]3[C@@H]1O and give only the class name.
Output line: mid

Input line: Hello team, could you let me know which band the following molecule falls into: C=C[C@@]1(C)CC(=O)[C@]2(O)[C@@]3(C)[C@@H](O)CCC(C)(C)[C@@H]3[C@H](O)[C@H](O)[C@@]2(C)O1
Output line: lo

Input line: Which ΔG° band matches CC[C@@]1(C)CC(=O)[C@@]2(O)[C@]3(C)[C@H](O)CCC(C)(C)[C@H]3[C@@H](O)[C@@H](OC(C)=O)[C@]2(C)O1 [14.15DiHFSK, 14,15-dihydro-forskolin] ?
Output line: mid

Input line: Class (by measured ΔG°) for CC(=O)O[C@@H]1/C=C\[C@@](C)(O)C(=O)[C@@H](C)C/C=C\[C@H]2[C@H](O)C(C)=C(C)[C@H]3C(Cc4ccccc4)NC(=O)[C@]132 (some centres unmarked)
Output line: hi

Input line: Band for C=C[C@@]1(C)CC(=O)[C@]2(O)[C@@]3(C)CCCC(C)(C)[C@@H]3[C@H](O)[C@H](OC(C)=O)[C@@]2(C)O1 ?
Output line: lo

---

Biological target: GLUT1 (Homo sapiens, UniProt P11166)
Sequence (P11166 1-492): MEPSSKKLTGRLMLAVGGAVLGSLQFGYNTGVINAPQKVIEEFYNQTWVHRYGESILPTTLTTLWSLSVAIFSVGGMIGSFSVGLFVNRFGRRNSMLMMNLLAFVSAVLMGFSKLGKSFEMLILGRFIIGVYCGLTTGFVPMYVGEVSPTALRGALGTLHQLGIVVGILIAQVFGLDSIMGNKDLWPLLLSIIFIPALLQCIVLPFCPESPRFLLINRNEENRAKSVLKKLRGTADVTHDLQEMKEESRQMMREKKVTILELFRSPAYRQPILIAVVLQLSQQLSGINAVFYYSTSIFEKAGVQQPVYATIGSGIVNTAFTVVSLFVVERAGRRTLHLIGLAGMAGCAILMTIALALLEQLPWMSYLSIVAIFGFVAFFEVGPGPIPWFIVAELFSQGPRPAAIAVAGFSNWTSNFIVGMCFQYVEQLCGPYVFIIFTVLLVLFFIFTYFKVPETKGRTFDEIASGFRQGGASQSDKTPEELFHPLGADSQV
Format: binding
Conditions: 50 nM [3H]-CB, competing ligand 0 to 100 μM
Attribute Measured: Inhibition (type of modulation of CB binding)
Respond numerically, and do not add a unit to the figure.

Input line: Tell me its Inhibition (type of modulation of CB binding) on GLUT1 (Homo sapiens, UniProt P11166): C=C1[C@@H](C)[C@H]2[C@H](Cc3ccccc3)NC(=O)[C@]23[C@H](OC(C)=O)/C=C/[C@@](C)(O)C(=O)[C@@H](C)C/C=C/[C@H]3[C@@H]1O
Output line: 3

Input line: Supply Inhibition (type of modulation of CB binding) measured with GLUT1 (Homo sapiens, UniProt P11166) for CC(=O)O[C@@H]1/C=C\[C@@](C)(O)C(=O)[C@@H](C)C/C=C\[C@H]2[C@H](O)C(C)=C(C)[C@H]3C(Cc4ccccc4)NC(=O)[C@]132 (stereo partly drawn) .
Output line: 4

Input line: Write down measured Inhibition (type of modulation of CB binding) (GLUT1 (Homo sapiens, UniProt P11166)) for this compound. C=C[C@@]1(C)CC(=O)[C@]2(O)[C@@]3(C)[C@@H](OC(C)=O)CCC(C)(C)[C@@H]3[C@H](OC(C)=O)[C@H](OC(C)=O)[C@@]2(C)O1
Output line: 2

---

Biological target: GLUT1 (Homo sapiens, UniProt P11166)
Sequence (P11166 1-492): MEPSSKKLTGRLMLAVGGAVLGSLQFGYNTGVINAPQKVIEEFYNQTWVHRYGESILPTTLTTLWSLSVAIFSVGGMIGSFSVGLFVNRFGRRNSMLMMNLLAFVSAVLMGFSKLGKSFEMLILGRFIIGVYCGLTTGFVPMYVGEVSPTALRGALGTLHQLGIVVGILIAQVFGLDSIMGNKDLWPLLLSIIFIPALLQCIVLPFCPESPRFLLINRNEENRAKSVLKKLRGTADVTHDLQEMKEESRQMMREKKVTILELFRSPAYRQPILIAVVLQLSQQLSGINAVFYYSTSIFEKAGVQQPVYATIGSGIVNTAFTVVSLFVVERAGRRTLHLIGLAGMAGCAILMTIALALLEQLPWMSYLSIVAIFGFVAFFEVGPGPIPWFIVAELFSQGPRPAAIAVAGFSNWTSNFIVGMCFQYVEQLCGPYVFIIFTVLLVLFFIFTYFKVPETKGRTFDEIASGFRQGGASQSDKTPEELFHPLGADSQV
Test: biochemical
Settings: Kl, fit versus measured free FSK
Attribute Measured: Kd (nM)
Give the number; nM is assumed, so skip it.

Input line: Please supply the value of reported Kd for the item C=C[C@@]1(C)CC(=O)[C@]2(O)[C@@]3(C)[C@@H](O)CCC(C)(C)[C@@H]3[C@H](O)[C@H](OC(C)=O)[C@@]2(C)O1 [FSK, forskolin]
Output line: 2830

---

target: GLUT1 (Homo sapiens, UniProt P11166); type: binding; conditions: read-out: KL (Table 3, taken from Table 1); forskolins, rounded values
For each entry below, report its Kd value.
Reply with just the number (in nM).

Input line: Assign Kd to the following record: C=C[C@@]1(C)CC(=O)[C@]2(O)[C@@]3(C)[C@@H](OC(C)=O)CCC(C)(C)[C@@H]3[C@H](OC(C)=O)[C@H](OC(C)=O)[C@@]2(C)O1 [1,6DiAFSK, 1,60diacetyl-forskolin]
Output line: 11

Input line: Tell me its Kd given C=C[C@@]1(C)CC(=O)[C@]2(O)[C@@]3(C)[C@@H](OC(C)=O)CCC(C)(C)[C@@H]3[C@H](O)[C@H](OC(C)=O)[C@@]2(C)O1 [1AFSK, 1-acetyl-forskolin] as the entry.
Output line: 3

Input line: Find the measured Kd of C=C[C@@]1(C)CC(=O)[C@]2(O)[C@@]3(C)[C@@H](O)CCC(C)(C)[C@@H]3[C@H](O)[C@H](O)[C@@]2(C)O1 [7DeAFSK, 7-deacetyl-forskolin] and report it.
Output line: 2

Input line: Supply reported Kd belonging to this molecule: C=C[C@@]1(C)CC(=O)[C@]2(O)[C@@]3(C)[C@@H](O)CCC(C)(C)[C@@H]3[C@H](O)[C@H](OC(=O)CF)[C@@]2(C)O1 [7FAFSK, 7-fluoroacetyl-forskolin]
Output line: 630

Input line: Output Kd of CC[C@@]1(C)CC(=O)[C@@]2(O)[C@]3(C)[C@H](O)CCC(C)(C)[C@H]3[C@@H](O)[C@@H](OC(C)=O)[C@]2(C)O1 [14.15DiHFSK, 14,15-dihydro-forskolin]
Output line: 30

Input line: Tell me its Kd given C=C[C@@]1(C)CC(=O)[C@]2(O)[C@@]3(C)CCCC(C)(C)[C@@H]3[C@H](O)[C@H](OC(C)=O)[C@@]2(C)O1 [1DOFSK, 1-deoxy-forskolin] as the entry.
Output line: 1

Input line: Let me know recorded Kd for C=C[C@@]1(C)CC(=O)[C@H]2[C@](C)(O1)[C@@H](OC(C)=O)[C@@H](O)[C@H]1C(C)(C)CC[C@H](O)[C@@]12C [9DOFSK, 9-deoxy-forskolin] , thanks.
Output line: 430
